- Tested on: Yap1 mRNA
- PROTOCOL NOTES: Antisense inhibition of human Yap1 in SNU-449 cells by modified oligonucleotides, single dose (Example 5, RTS36584)
- Type: cell-based
- PARTICULARS: Table 49; Yap1 mRNA level relative to untreated control; modified oligonucleotides targeting SEQ ID NO.: 1 and 2
Strand notation (5' to 3'): a small letter for the sugar, then the base; units joined by * are phosphorothioate-linked, units joined directly phosphodiester-linked; [ ] holds rarer units or linkages, { } end groups; capitals alone tell only the bases. e = 2'-O-(2-methoxyethyl) (MOE); k = constrained ethyl (cEt); [5mC] = 5-methylcytosine; d = 2'-deoxy (DNA)
Would you mind telling me the reported YAP1 (% UT) of each entry?
Answers are plain numbers, in % UT.

Sample records with YAP1 (% UT):
1198571 (antisense kA*kG*k[5mC]*dA*d[5mC]*dT*dT*dT*dT*dA*d[5mC]*dA*kT*kT*kA*eG) [Compound 1198571]: 32
1198304 (kA*kG*kG*dT*dA*dT*dA*dA*d[5mC]*dT*dG*dG*kG*e[5mC]*kA*eA; antisense) [Compound 1198304]: 33
1198334 (kA*kT*kA*dT*dG*dG*dT*dT*dT*dT*dG*dT*kG*eT*kG*eT; antisense) [Compound 1198334]: 57

Hi, could you look up YAP1 (% UT) for each item in my list?
1. 1198363 (kA*kA*kG*dT*dA*dA*dG*dG*dT*dT*dT*d[5mC]*k[5mC]*e[5mC]*kA*eG; antisense) [Compound 1198363]
2. 1198557 (antisense kA*kT*kA*dT*dT*dA*dG*dA*dG*dT*dA*dT*kG*kT*kG*eG) [Compound 1198557]
3. 1095565 (antisense kT*kG*kA*dG*dG*dT*dA*dT*dA*dA*d[5mC]*dT*kG*eG*kG*e[5mC]) [Compound 1095565]

Reply:
[55, 16, 25]
